The values you see were collected from patent US8809341B2.

test system: A549 cells; experiment: in vitro antiproliferation assay, A549 (lung); assay type: cell-based; settings: A549 (lung) cells, antiproliferation
pIC50: −log10 of the molar value.
Can you tell me pIC50 for the items I'm about to list?

For orientation, consider the following solved cases.
Bench note, A549 cells: entry `CNC(=O)COc1cccc(Nc2ncc(F)c(Nc3ccc(Cl)c(Cl)c3)n2)c1` , its pIC50 = ≥ 4.70

Measured pIC50 (A549 cells), entry `COC(=O)COc1cccc(Nc2ncc(F)c(Nc3ccc(N4CCOCC4)cc3)n2)c1` : ≥ 4.70

Noted pIC50 for `COc1ccc(Nc2nc(Nc3cccc(-c4ncon4)c3)ncc2F)cc1OC` , tested on A549 cells: ≥ 4.70

Observed pIC50, A549 cells, `COc1c(C)cc(Nc2nc(Nc3cccc(OCC(=O)N4CCNCC4)c3)ncc2F)cc1C` : < 4.70

Form field, pIC50 with A549 cells, item `CN(c1ccc(Cl)c(Cl)c1)c1nc(Nc2ccc(C(N)=O)cc2)ncc1F` : ≥ 4.70

Please go through the list and note pIC50 for each compound.
1. CNC(=O)COc1cccc(Nc2nc(Nc3cccc(C(C)(C)C)c3)ncc2F)c1
2. COc1cc(Nc2nc(Nc3cccc(-c4ncco4)c3)ncc2F)cc(OC)c1OC
3. CCOC(=O)COc1cccc(Nc2ncc(F)c(Nc3cc(Cl)c(O)c(Cl)c3)n2)c1

OUT:
< 4.70
≥ 4.70
< 4.70
